# GI50 per entry
Tested on: T-47D
method.summary: NCI growth inhibition and cytotoxicity screen, Breast Cancer panel
experimental.context: Homo sapiens, T47D
measurement.name: GI50 (µM)

{"structure.smiles.string": "COc1cc(/C(C#N)=C/c2cnc3ccccc3c2)cc(OC)c1OC", "reading.unit": "µM", "qualifier.symbol": "=", "test.value": 9.54}
{"structure.smiles.string": "COc1cc(/C(C#N)=C\\c2cc3ccccc3s2)cc(OC)c1OC", "reading.unit": "µM", "qualifier.symbol": "<", "test.value": 0.01}
{"structure.smiles.string": "COc1cc(/C(C#N)=C/c2ccc3ccccc3n2)cc(OC)c1OC", "reading.unit": "µM", "qualifier.symbol": "=", "test.value": 4.76}
